Experiment: label from the status in PepcDB records
reported-endpoint: protein production

MMKSLGSIRRSFAPWADPASKPFISVKNVTKKFGDFTAVDDLSLNIYTREFFALLGASGCGKSTLLRMLAGFEQPTSGEIILDGQSLAGIPPYRRPVNMMFQSYALFPHMTVENNVAFGLKQDGMPKADIAERVAQMLKLVKLEKFAKRKPHQLSGGQRQRVALARSLAKRPKVLLLDEPLGALDKKLREETQFELMDLQQELGLTFVVVTHDQEEAMTMADRIAVMSHGKVVQVATPAEIYEAPNSRFVADFIGDVNIFDGKVTSAEDGYIRVETTGGIPVRMASPEKPGNGAKAAVAIRPEKIRIGRQPPAHAPVNAAEGEIWDIGYLGDMTVFHIRLKDGKVVKASSLNAVRAVEDPLGYDQQVWISFGDDAGVVLKD failed
MKKLPLVFSGCLLGLAGAGNLILDTLPVLSHLFSLIGLVLWIYFLILHLFNWKETKQELTKPPLLSGMATFPMAGMILSTYVFRVFSYLPLVAQGIWWFSFLLDLTLIAGFTIKFACPGRRVHATPSWTVLYVGIAVAALTYPLVGIIEIAYATLSFGFLLTFYLYPLIYSDLKKHPLPLALLGQEGIYCAPFSLLLASLVRVGGTSLPTWVLIVMILASQSFFFFVLTRLPNILKQGFQPAFSALTFPTIITATSLKMAQGILKLPFLDYLVLAETIICLTILFFVLGAYLIWLRKKV failed
MIHRRCVGGRRNHGGRVAQGSSRSRLPQQGTPVTMSSTSSTPPWNVQRLPGADGRVFLVTGGNAGIGYFVAEQLSATGATVVLGSRNPAKAEAATASIRARVPGSRVRAVRLDLADLSSLETAVESLEVERLDAVVHNAGVALDDPPREETGDGHELMFGTNHLGHFALTQWLMPLLSAAPAARVVTMGSFAAKSERLDLDDLQSRKDYQPKRTYGRSKLAQMYFGVELDRRLRAAGSTVASVVVHPGGALDSLTPSRPPVHVRSTGARLSAAPAALLLQGKHAGAWPAVRAVLDPAVRGGQLWGPRVFGLRGEPRREPVWDHLADPSVAARLWDASCDLMGTDLSTISG failed
MSRFLTFFLIVFSYALQAQVASLTNAILYRNDGNLIKAKEEIDKAVVNEKTIGMPKTWFYTGLIYKDLYQATPTDLAALTTSTAAFKKVFELEKPAGEFSKKSQEALEQIWAISINNGVNLYQLENYRQAITDFERAQGIKPGDTTAYVYAFYAANELKDQALLEKYSSALVRLNYASEAVYYIDIESLMDKNLLDSAYTVSKKALTNYPSDIALKTQQTELMVKMNKTQEAIENLKVLSTKNPKDVQLLINIGSQYTNLNDEPHAAEYYQKALAIDSVNFNANYNMAVFSLRKANEISKQIVVSDNNLKKSFKAIPTVATDPLRQNLQKELAVSTKYYNRAVLGAKDEEAKKNVKTLQDNITSFEDQFLK failed
